Entry source: ChEMBL document CHEMBL4806963

- Tested System: Frizzled-2 (Homo sapiens)
- Protocol Description: Antagonist activity at Wnt3a-stimulated frizzled-2 (unknown origin) expressed in human HEK293superTOP flash cells at 10 nM incubated for 24 hrs by luciferase reporter gene assay
- Assay type: functional, cell-based
- Applied Conditions: HEK293
The source made the active and inactive calls. The rule behind the calls is not given here. Where a SMILES comes first, the peptide text is derived from it.

Compound	inhibition
CSCC[C@H](NC(=O)CNC(=O)[C@H](CCC(=O)O)NC(=O)[C@H](CO)NC(=O)[C@@H](NC(=O)[C@H](CCCCN)NC(=O)[C@H](CC(N)=O)NC(=O)[C@H](CS)NC(C)=O)[C@@H](C)O)C(=O)N[C@@H](CC(=O)O)C(=O)NCC(=O)N[C@@H](CS)C(=O)N[C@@H](C)C(=O)N[C@@H](C)C(N)=O (Ac-CNKTSEGMDGCAA-NH2)	inactive
CSCC[C@H](NC(=O)CNC(=O)[C@H](CCC(=O)O)NC(=O)[C@H](CO)NC(=O)[C@@H](NC(=O)[C@H](CCCCN)NC(=O)[C@H](CC(N)=O)NC(=O)[C@H](CS)NC(C)=O)[C@@H](C)O)C(=O)N[C@@H](CC(=O)O)C(=O)NCC(=O)N[C@@H](CS)C(=O)N[C@@H](CCC(=O)O)C(=O)N[C@@H](C)C(N)=O (Ac-CNKTSEGMDGCEA-NH2)	inactive

* * *

- Tested System: Frizzled-2 (Homo sapiens) (UniProt Q14332)
- Sequence (Q14332 24-565 limits assumed): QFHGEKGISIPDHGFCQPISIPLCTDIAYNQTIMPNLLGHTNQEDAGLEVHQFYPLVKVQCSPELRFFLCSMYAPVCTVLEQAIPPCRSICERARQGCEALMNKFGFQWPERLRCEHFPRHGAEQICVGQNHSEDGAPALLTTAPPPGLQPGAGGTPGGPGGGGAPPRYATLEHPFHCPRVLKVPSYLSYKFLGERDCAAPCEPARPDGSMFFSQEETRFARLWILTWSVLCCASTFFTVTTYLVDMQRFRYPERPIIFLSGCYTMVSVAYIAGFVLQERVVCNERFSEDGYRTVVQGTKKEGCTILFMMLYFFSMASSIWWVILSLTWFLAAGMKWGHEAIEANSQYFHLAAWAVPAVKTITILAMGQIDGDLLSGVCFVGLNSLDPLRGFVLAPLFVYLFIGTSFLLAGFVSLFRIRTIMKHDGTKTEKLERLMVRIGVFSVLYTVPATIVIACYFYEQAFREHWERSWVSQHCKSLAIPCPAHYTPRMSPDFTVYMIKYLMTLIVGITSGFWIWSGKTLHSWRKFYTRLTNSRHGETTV
- Protocol Description: Antagonist activity at Wnt3a-stimulaed frizzled-2 (unknown origin) expressed in human HEK293superTOP flash cells at 1 nM incubated for 24 hrs by luciferase reporter gene assay (reference value: 0%)
- Assay type: functional, cell-based
- Applied Conditions: HEK293, filed as antagonist
Where a SMILES comes first, the peptide text is derived from it.
Reported Property: inhibition

Compound	Tested System	Reported Property	Test Result
CSCC[C@H](NC(=O)CNC(=O)[C@H](C)NC(=O)[C@H](CO)NC(=O)[C@@H](NC(=O)[C@H](CCCCN)NC(=O)[C@H](CC(N)=O)NC(=O)[C@H](CS)NC(C)=O)[C@@H](C)O)C(=O)N[C@@H](CC(=O)O)C(=O)NCC(=O)N[C@@H](CS)C(=O)N[C@@H](CCC(=O)O)C(=O)N[C@@H](CC(C)C)C(N)=O (Ac-CNKTSAGMDGCEL-NH2)	Frizzled-2 (Homo sapiens) (UniProt Q14332)	inhibition	84.7%
CC[C@H](C)[C@H](NC(=O)CNC(=O)[C@H](Cc1cnc[nH]1)NC(=O)[C@H](CO)NC(=O)[C@H](CO)NC(=O)[C@@H](NC(=O)[C@H](CC(N)=O)NC(=O)[C@@H](N)CS)C(C)C)C(=O)N[C@@H](CC(=O)O)C(=O)NCC(=O)N[C@@H](CS)C(=O)N[C@@H](CC(=O)O)C(=O)N[C@@H](CC(C)C)C(=O)O (H-CNVSSHGIDGCDL-OH)	Frizzled-2 (Homo sapiens) (UniProt Q14332)	inhibition	62.4%

* * *

- Tested System: Frizzled-2 (Rattus norvegicus)
- Protocol Description: Antagonist activity at Wnt3a-stimulated rat frizzled-2 expressed in […] cells up to 10 uM incubated for 24 hrs by luciferase reporter gene assay
- Type: cell-based
- Applied Conditions: dose microM <=10, time 24.0 hrs
Calls of active or inactive are those of the source. No cut-off for these calls is given here. Where a SMILES comes first, the peptide text is derived from it.

Compound	inhibition
CSCC[C@H](NC(=O)CNC(=O)[C@H](C)NC(=O)[C@H](CO)NC(=O)[C@@H](NC(=O)[C@H](CCCCN)NC(=O)[C@H](CC(N)=O)NC(=O)[C@H](CS)NC(C)=O)[C@@H](C)O)C(=O)N[C@@H](CC(=O)O)C(=O)NCC(=O)N[C@@H](CS)C(=O)N[C@@H](CCC(=O)O)C(=O)N[C@@H](CC(C)C)C(N)=O (Ac-CNKTSAGMDGCEL-NH2)	inactive
CC[C@H](C)[C@H](NC(=O)CNC(=O)[C@H](Cc1cnc[nH]1)NC(=O)[C@H](CO)NC(=O)[C@H](CO)NC(=O)[C@@H](NC(=O)[C@H](CC(N)=O)NC(=O)[C@@H](N)CS)C(C)C)C(=O)N[C@@H](CC(=O)O)C(=O)NCC(=O)N[C@@H](CS)C(=O)N[C@@H](CC(=O)O)C(=O)N[C@@H](CC(C)C)C(=O)O (H-CNVSSHGIDGCDL-OH)	inactive
CSCC[C@H](NC(=O)CNC(=O)[C@H](CCC(=O)O)NC(=O)[C@H](CO)NC(=O)[C@@H](NC(=O)[C@H](CCCCN)NC(=O)[C@H](C)NC(=O)[C@H](CS)NC(C)=O)[C@@H](C)O)C(=O)N[C@@H](CC(=O)O)C(=O)NCC(=O)N[C@@H](CS)C(=O)N[C@@H](CCC(=O)O)C(=O)N[C@@H](CC(C)C)C(N)=O (Ac-CAKTSEGMDGCEL-NH2)	inactive

* * *

- Tested System: Frizzled-2 (Homo sapiens) (UniProt Q14332)
- Protocol Description: Antagonist activity at Wnt3a-stimulated frizzled-2 (unknown origin) expressed in human HEK293superTOP flash cells incubated for 24 hrs by luciferase reporter gene assay
- Assay type: functional, cell-based
- Applied Conditions: HEK293
Activity calls are given as the source filed them. No cut-off for these calls is given here.
Reported Property: inhibition

1. Ac-GSKGTQGRACN-NH2 inactive
2. Ac-DLVYFELSPDFCA-NH2 inactive
3. Ac-MNRHNNEAGR-NH2 inactive
4. Ac-GDWEWGECSDNI-NH2 inactive
